scaled lipid accumulation score reference
System: primary human hepatic stellate cells (donor 1)
Experiment: scaled lipid accumulation score (0 = DMSO-like, 1 = nortriptyline-like); higher = stronger HSC inactivation (lipid re-accumulation), active = hit call of the paper
Settings: library stock concentration: 10 mM; 48 h
Among all 5,800 compounds or so, about 620 (11%) showed activity. Only a selection was taken, and actives are over-represented in it overall.

Query :: Look at this compound and give its reported scaled lipid accumulation score. "O=c1[nH]nc(Sc2ncc([N+](=O)[O-])s2)n1-c1ccc2c(c1)OCCO2"
Result :: 1.25 (active)

Query :: Look at this compound and give its reported scaled lipid accumulation score. "CCCc1ccc(C(=O)Oc2ccc(C#N)cc2)cc1"
Result :: 0.011 (inactive)

Query :: Look at this compound and give its reported scaled lipid accumulation score. "CC(C)NCCCn1c(Sc2cc3c(cc2I)OCO3)nc2c(N)ncnc21"
Result :: 0.881 (active)

Query :: Look at this compound and give its reported scaled lipid accumulation score. "C=C1/C(=C\C=C2/CCC[C@]3(C)[C@@H]([C@H](C)CCCC(C)(C)O)CC[C@@H]23)C[C@@H](O)C[C@@H]1O"
Result :: ≤ 0 (inactive)

Query :: Look at this compound and give its reported scaled lipid accumulation score. COc1cc(C)c(Sc2cnc(NC(=O)c3ccc(CNC(C)C(C)(C)C)cc3)s2)cc1C(=O)N1CCN(C(C)=O)CC1 (stereo unspecified)
Result :: 0.769 (inactive)

Query :: Look at this compound and give its reported scaled lipid accumulation score. N=C(N)N/N=C/c1c(Cl)cccc1Cl [Guanabenz Acetate]
Result :: 0.578 (inactive)
